The measurements presented in this section are drawn from ChEMBL document CHEMBL1147550.

# STUDY TARGET: Genome polyprotein (Hepatitis C virus genotype 1a (isolate 1) (HCV), UniProt P26664)
# Sequence (P26664 1027-1657 limits assumed): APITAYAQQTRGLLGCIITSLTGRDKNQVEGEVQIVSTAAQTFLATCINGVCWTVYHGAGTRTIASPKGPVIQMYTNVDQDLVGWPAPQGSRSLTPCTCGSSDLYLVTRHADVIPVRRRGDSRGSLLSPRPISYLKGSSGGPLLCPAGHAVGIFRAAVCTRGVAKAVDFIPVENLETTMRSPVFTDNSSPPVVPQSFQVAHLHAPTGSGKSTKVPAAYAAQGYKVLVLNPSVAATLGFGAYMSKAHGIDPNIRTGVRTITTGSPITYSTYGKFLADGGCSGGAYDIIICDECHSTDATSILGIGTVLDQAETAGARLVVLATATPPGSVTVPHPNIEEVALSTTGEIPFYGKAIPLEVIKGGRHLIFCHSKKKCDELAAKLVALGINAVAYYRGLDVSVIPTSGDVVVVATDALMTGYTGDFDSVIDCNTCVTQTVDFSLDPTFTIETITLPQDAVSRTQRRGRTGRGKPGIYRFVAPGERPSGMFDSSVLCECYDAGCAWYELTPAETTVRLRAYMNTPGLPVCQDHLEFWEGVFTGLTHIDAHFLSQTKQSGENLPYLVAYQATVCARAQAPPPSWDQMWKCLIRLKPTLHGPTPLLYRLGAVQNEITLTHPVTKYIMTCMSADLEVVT
# ASSAY: Inhibition of Hepatitis C virus NS3 protease in vitro.
ATTRIBUTE MEASURED: IC50 (µM)

Use the examples below as a reference point.
O=C(O)c1cc(F)c(CCNC(=O)[C@H](CC(F)F)NC(=O)[C@@H]2C[C@@H](c3ccccc3)CN2C(=O)[C@@H](O)C2CCCCC2)c(F)c1: 14
O=C(O)c1cc(F)c(CCNC(=O)[C@H](CC(F)F)NC(=O)[C@@H]2C[C@@H](c3ccccc3)CN2C(=O)[C@@H](O)C2CCCC2)c(F)c1: 13
CC(C)COC(=O)N[C@H](C(=O)N1C[C@H](c2ccccc2)C[C@H]1C(=O)N[C@@H](CC(F)F)C(=O)NCCc1c(F)cc(C(=O)O)cc1F)C(C)C: 0.9

(A) CC(C)(C)[C@H](O)C(=O)N1C[C@H](c2ccccc2)C[C@H]1C(=O)N[C@@H](CC(F)F)C(=O)NCCc1c(F)cc(C(=O)O)cc1F
(B) O=C(O)c1cc(F)c(CCNC(=O)[C@H](CC(F)F)NC(=O)[C@@H]2C[C@@H](c3ccccc3)CN2C(=O)CC2CCCC2)c(F)c1
(C) CC(C)COC(=O)N[C@H](C(=O)N[C@@H](CC(C)C)C(=O)N[C@@H](CC(F)F)C(=O)NCCc1ccc(C(=O)O)cc1Cl)C(C)C
Qu. Order each entry by recorded IC50, climbing from the minimum. Answer by listing the labels in the order asked for.
Ans. C, A, B

(A) CC(C)[C@H](O)C(=O)N1C[C@H](OC2CCCCC2)C[C@H]1C(=O)N[C@@H](CC(F)F)C(=O)NCCc1c(F)cc(C(=O)O)cc1F
(B) CC(C)[C@H](O)C(=O)N1C[C@H](c2ccccc2)C[C@H]1C(=O)N[C@@H](CC(F)F)C(=O)NCCc1c(F)cc(C(=O)O)cc1F
(C) CC(C)CC(=O)N1C[C@H](c2ccccc2)C[C@H]1C(=O)N[C@@H](CC(F)F)C(=O)NCCc1c(F)cc(C(=O)O)cc1F
Qu. // sort entries: IC50, high to low Ranked list of labels, please, in the requested order.
Ans. C, A, B
